biological target: PDE4D (Homo sapiens, UniProt Q08499); construct: PDE4D: The catalytic domain of human PDE4B from S3 16-V692; His6 (N); thrombin cleavage site (N); made in house; host or cells: E. coli; assay: PDE4 IC50 determination by Scintillation Proximity Assay, PDE4D; format: biochemical; conditions: Table 1B, Formula I compounds; read-out: IC50 PDE4D
Sequence (Q08499 380-756): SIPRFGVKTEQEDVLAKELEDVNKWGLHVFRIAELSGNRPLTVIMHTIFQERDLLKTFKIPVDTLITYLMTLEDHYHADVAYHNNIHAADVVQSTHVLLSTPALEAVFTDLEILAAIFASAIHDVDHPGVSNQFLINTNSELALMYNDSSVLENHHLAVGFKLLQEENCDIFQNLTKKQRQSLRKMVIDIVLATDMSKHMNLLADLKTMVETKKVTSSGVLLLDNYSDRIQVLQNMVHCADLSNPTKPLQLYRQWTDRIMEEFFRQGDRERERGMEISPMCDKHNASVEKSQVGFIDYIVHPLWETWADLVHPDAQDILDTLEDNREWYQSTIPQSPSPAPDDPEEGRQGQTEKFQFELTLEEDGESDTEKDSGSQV
pIC50: −log10 of the molar value.
Measured parameter: pIC50

Give pIC50 for each of the items listed below.
1. N#Cc1c(Nc2ccccc2)sc(C(=O)Nc2nccs2)c1N
2. CCC(CC)Nc1sc(C(=O)c2cc(-c3ccccc3)no2)c(N)c1C#N
3. CCOC(=O)C(=O)c1sc(NC2CCCC2)c(C#N)c1N
4. N#Cc1c(Nc2ccc(Oc3ccccc3)cc2)sc(C(=O)C2CC2)c1N
5. COC(=O)C(CC(C)C)Nc1sc(C(=O)c2c(-c3ccccc3)noc2C)c(N)c1C#N (stereo not drawn)
6. COc1ccc(Nc2sc(C(=O)c3cnn(-c4ccccc4)c3C)c(N)c2C#N)cc1
7. N#Cc1c(NC2CCCC2)sc(C(=O)c2ccsc2)c1N
8. COC(=O)C(CCSC)Nc1sc(C(=O)c2c(-c3ccccc3)noc2C)c(N)c1C#N (stereo not drawn)

OUTPUT:
1: > 5.00; 2: > 5.00; 3: > 5.00; 4: > 5.00; 5: < 5.00; 6: > 5.00; 7: > 5.00; 8: < 5.00

INPUT: Can you share its pIC50? I mean this compound: CCOC(=O)c1sc(NC2CCCC2)c(C#N)c1N
OUTPUT: > 5.00

----------
target: PDE4D (Homo sapiens); construct: PDE4D: The catalytic domain of human PDE4B from S3 16-V692; His6 (N); thrombin cleavage site (N); made in house; host or cells: E. coli; experiment: PDE4 IC50 determination by Scintillation Proximity Assay, PDE4D; type: biochemical; conditions: Table 1B, Formula I compounds; read-out: IC50 PDE4D
pIC50: −log10 of the molar value.
Measured parameter: pIC50

Here are 8 compounds together with their reported answers.
Compound	Test value
N#Cc1c(NC2CCCC2)sc(C(=O)c2cccc(Cl)c2)c1N	> 5.00
N#Cc1c(Nc2ccccc2F)sc(C(=O)c2ccc(-c3ccccn3)s2)c1N	> 5.00
CCc1ccccc1Nc1sc(C(=O)c2cc(OC)ccc2OC)c(N)c1C#N	> 5.00
N#Cc1c(NCCN2CCCCC2)sc(C(=O)c2coc3ccccc23)c1N	< 5.00
COC(=O)C(CC(C)C)Nc1sc(C(=O)c2cccc(Cl)c2)c(N)c1C#N (stereo not drawn)	< 5.00
CC(C)Nc1sc(C(=O)c2cc(-c3ccccc3)no2)c(N)c1C#N	> 5.00
N#Cc1c(NC2CC2)sc(C(=O)c2cc(-c3ccccc3)no2)c1N	< 5.00
N#Cc1c(Nc2ccc(OC(F)F)cc2)sc(C(=O)c2ccc(OC(F)F)cc2)c1N	> 5.00

// switching to the query compound
INPUT: Name the recorded pIC50 for COC(=O)C(CC(C)C)Nc1sc(C(=O)c2ccccn2)c(N)c1C#N (stereo not drawn) .
OUTPUT: < 5.00

----------
Target: full-length human PDE4B2 isozyme (Homo sapiens, UniProt Q07343)
Construct: The full-length human PDE4B2 isozyme; His6 (N); TEV cleavage site (N); made in house; host or cells: baculovirus infected insect cells (unpurified lysate)
Sequence (Q07343 1-564 isoform Q07343-2): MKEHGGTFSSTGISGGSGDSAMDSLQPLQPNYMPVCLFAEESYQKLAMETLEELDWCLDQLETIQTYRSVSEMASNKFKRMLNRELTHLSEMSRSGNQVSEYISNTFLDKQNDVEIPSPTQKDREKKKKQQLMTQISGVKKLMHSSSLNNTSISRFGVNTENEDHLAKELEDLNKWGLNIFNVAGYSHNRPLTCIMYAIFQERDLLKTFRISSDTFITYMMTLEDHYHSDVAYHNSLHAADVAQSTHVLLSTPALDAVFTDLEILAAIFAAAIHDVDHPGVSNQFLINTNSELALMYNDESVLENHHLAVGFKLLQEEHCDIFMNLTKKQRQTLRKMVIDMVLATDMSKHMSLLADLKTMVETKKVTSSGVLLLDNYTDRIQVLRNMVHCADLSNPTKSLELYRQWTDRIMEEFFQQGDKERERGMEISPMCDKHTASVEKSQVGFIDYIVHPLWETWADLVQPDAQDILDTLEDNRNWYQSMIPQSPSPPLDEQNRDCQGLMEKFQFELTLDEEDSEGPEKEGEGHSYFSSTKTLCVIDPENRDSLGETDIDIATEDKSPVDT
Test: PDE4 IC50 determination by Scintillation Proximity Assay, PDE4B2
Assay type: biochemical
Details: Table 1B, Formula I compounds; read-out: IC50 PDE4B2
Protocol: IC50s were determined by Scintillation Proximity Assay (SPA). The principle of the assay is based on the fact that cAMP, the PDE4 substrate, binds weakly to Yittrium Silicate SPA beads, whereas AMP, the product of PDE4 hydrolysis binds strongly. Thus, the extent of PDE4 hydrolysis of a sample of [^3H]cAMP can be measured because only the [^3H]AMP produced by PDE4 hydrolysis will bind to the SPA beads and produce a scintillation signal. PDE4 enzymes used for IC50 assays were: […]
pIC50: −log10 of the molar value.
For each entry below, report its pIC50 value.

# annotated cases, reported pIC50 shown
Molecule	Target or system	Test value
CCc1c(NC2CCCC2)sc(C(=O)c2cc(-c3ccccc3)no2)c1N [Compound 1-241]	full-length human PDE4B2 isozyme (Homo sapiens, UniProt Q07343)	> 5.00
N#Cc1c(NC2CC2)sc(C(=O)c2cc(-c3ccccc3)no2)c1N [Compound 1-186]	full-length human PDE4B2 isozyme (Homo sapiens, UniProt Q07343)	> 5.00

I'm hoping you can list pIC50 for every molecule here, please.
1. COc1ccc(Nc2sc(C(=O)c3ccccc3)c(N)c2C#N)cc1 [Compound 1-32]
2. NC(=O)c1c(Nc2ccccc2)sc(C(=O)c2ccccc2)c1N [Compound 1-12]
3. NC(=O)c1c(NC2CCCC2)sc(C(=O)c2cc(-c3ccc(N)cc3)no2)c1N [Compound 1-253]
4. CC(C)CNc1sc(C(=O)c2cc(-c3ccc(Cl)c(Cl)c3)no2)c(N)c1C#N [Compound 1-226]

OUTPUT:
1: > 5.00; 2: < 5.00; 3: > 5.00; 4: < 5.00

For each of the molecules below, state pIC50.
1. COc1ccc(CNc2sc(C(=O)c3ccc(-c4ccccn4)s3)c(N)c2C#N)cc1OC [Compound 1-75]
2. COc1ccc(Nc2sc(C(=O)c3cnn(-c4ccccc4)c3C)c(N)c2C#N)cc1 [Compound 1-50]

OUTPUT:
["> 5.00", "> 5.00"]
